I'd be grateful if you could share measured log10 IC50 for these entries.
# Tested on: Plasmodium falciparum
# TEST DESCRIPTION: Antimalarial activity against chloroquine-resistant Plasmodium falciparum C235 assessed as growth inhibition after 18 hrs by [3H]-hypoxanthine uptake assay
# Assay type: functional, organism-based
Units before log transform: nM; reported quantity: IC50; transform: log10.

Use the examples below as a reference point.
* COc1ccc2nc3cc(Cl)ccc3c(N/C(=N/CCCN(C)C)C(C)C)c2n1 | 0.63
* CCN(CC)CCN/C(=N\c1ccnc2cc(Cl)ccc12)C(C)C | 1.72
* CCN(CC)CCC/N=C(\C)N(CCCN(CC)CC)c1c2ccc(Cl)cc2nc2ccc(OC)nc12 | 0.71

Batch of 5 molecules: report log10 IC50 for each.
1. CC(C)/C(=N/c1ccnc2cc(Cl)ccc12)NCCCCN1CCCCC1
2. CCN(CC)CCC/N=C(/Nc1c2ccc(Cl)cc2nc2ccc(OC)nc12)C(C)C
3. C/C(=N/c1ccnc2cc(Cl)ccc12)NCCCN1CCOCC1
4. C/C(=N/c1ccnc2cc(Cl)ccc12)NCCCCN1CCCCC1
5. CC(C)/C(=N/c1ccnc2cc(Cl)ccc12)NC1CCN(Cc2ccccc2)CC1

Result block:
1.08
0.58
2.76
1.81
1.49
